- System: MDCK
- experimental_details: Cytotoxicity against MDCK cells assessed as reduction in cell viability after 3 days by MTS assay
- Assay type: cell-based, Canis lupus familiaris
- assay_setup: dog, mdck, 72 h
property_measured: CC50 (µM)
All answers are understood in µM, so give the number only.

Entry under review: CCCCCCCCCCCCSC1=C(SCCCCCCCCCCCC)C(=O)N(CCOCCOCCOCCOCc2cn(C3C(=O)N[C@@H]4Cc5ccc(c(Cl)c5)Oc5cc6cc(c5O)Oc5ccc(cc5Cl)[C@@H](O[C@@H]5O[C@H](CO)[C@@H](O)[C@H](O)[C@H]5NC(C)=O)[C@H]5NC(=O)[C@H](NC(O)[C@@H]6NC(=O)[C@@H](NC4=O)c4cc(O)cc(c4)Oc4cc3ccc4O)c3ccc(O)c(c3)-c3c(O)cc(O)cc3[C@H](C(=O)O)NC5=O)nn2)C1=O (stereo partly drawn) . Reported CC50?
79

Entry under review: CCCSC1=C(SCCC)C(=O)N([C@H]2C(=O)N[C@@H]3Cc4ccc(c(Cl)c4)Oc4cc5cc(c4O)Oc4ccc(cc4Cl)[C@@H](O[C@@H]4O[C@H](CO)[C@@H](O)[C@H](O)[C@H]4NC(C)=O)[C@H]4NC(=O)[C@H](NC(O)[C@@H]5NC(=O)[C@@H](NC3=O)c3cc(O)cc(c3)Oc3cc2ccc3O)c2ccc(O)c(c2)-c2c(O)cc(O)cc2[C@H](C(=O)O)NC4=O)C1=O (stereo partly drawn) . Reported CC50?
18

----------
- System: Influenza B virus
- experimental_details: Antiviral activity against Influenza B virus B/Ned/537/05 infected in MDCK cells after 3 days by MTS assay
- Type: functional, organism-based
- assay_setup: B/Ned/537/05, MDCK, 72 h
property_measured: EC50

Entry under review: CC(=O)Nc1ccc(S(=O)(=O)N[C@H]2C(=O)N[C@@H]3Cc4ccc(c(Cl)c4)Oc4cc5cc(c4O)Oc4ccc(cc4Cl)[C@@H](O[C@@H]4O[C@H](CO)[C@@H](O)[C@H](O)[C@H]4NC(C)=O)[C@H]4NC(=O)[C@H](NC(O)[C@@H]5NC(=O)[C@@H](NC3=O)c3cc(O)cc(c3)Oc3cc2ccc3O)c2ccc(O)c(c2)-c2c(O)cc(O)cc2[C@H](C(=O)O)NC4=O)cc1 (stereo partly drawn) . Reported EC50?
47 µM

Entry under review: "CC(=O)N[C@H]1[C@H]([C@H](O)[C@H](O)CO)OC(C(=O)O)=C[C@@H]1N=C(N)N" . Reported EC50?
0.0062 µM

Entry under review: CC(=O)N[C@H]1[C@H](O[C@@H]2c3ccc(c(Cl)c3)Oc3cc4cc(c3O)Oc3ccc(cc3Cl)C[C@H]3NC(=O)[C@H](NS(=O)(=O)c5ccc(C)cc5)c5ccc(O)c(c5)Oc5cc(O)cc(c5)[C@H](NC3=O)C(=O)N[C@H]4C(O)N[C@H]3C(=O)N[C@H]2C(=O)N[C@@H](C(=O)O)c2cc(O)cc(O)c2-c2cc3ccc2O)O[C@H](CO)[C@@H](O)[C@@H]1O (stereo partly drawn) . Reported EC50?
12 µM

----------
- Tested on: Influenza B virus
- experimental_details: Antiviral activity against Influenza B virus B/Ned/537/05 infected in MDCK cells after 3 days by MTS assay
- Format: functional, organism-based
- assay_setup: B/Ned/537/05, MDCK, 72 h
property_measured: pEC50
Keep it numeric: pEC50 is minus log10 of the concentration in mol/L.

Entry under review: CC(=O)N[C@H]1[C@H](O[C@@H]2c3ccc(c(Cl)c3)Oc3cc4cc(c3O)Oc3ccc(cc3Cl)C[C@H]3NC(=O)[C@H](NS(=O)(=O)c5ccc(-c6ccccc6)cc5)c5ccc(O)c(c5)Oc5cc(O)cc(c5)[C@H](NC3=O)C(=O)N[C@H]4C(O)N[C@H]3C(=O)N[C@H]2C(=O)N[C@@H](C(=O)O)c2cc(O)cc(O)c2-c2cc3ccc2O)O[C@H](CO)[C@@H](O)[C@@H]1O (stereo not given in full) . Reported pEC50?
5.62

Entry under review: CCCCCCSC1=C(SCCCCCC)C(=O)N(Cc2cn(C3C(=O)N[C@@H]4Cc5ccc(c(Cl)c5)Oc5cc6cc(c5O)Oc5ccc(cc5Cl)[C@@H](O[C@@H]5O[C@H](CO)[C@@H](O)[C@H](O)[C@H]5NC(C)=O)[C@H]5NC(=O)[C@H](NC(O)[C@@H]6NC(=O)[C@@H](NC4=O)c4cc(O)cc(c4)Oc4cc3ccc4O)c3ccc(O)c(c3)-c3c(O)cc(O)cc3[C@H](C(=O)O)NC5=O)nn2)C1=O (stereo not given in full) . Reported pEC50?
5.57

Entry under review: CC(=O)N[C@H]1[C@H](O[C@@H]2c3ccc(c(Cl)c3)Oc3cc4cc(c3O)Oc3ccc(cc3Cl)C[C@H]3NC(=O)[C@H](NS(=O)(=O)c5ccccc5)c5ccc(O)c(c5)Oc5cc(O)cc(c5)[C@H](NC3=O)C(=O)N[C@H]4C(O)N[C@H]3C(=O)N[C@H]2C(=O)N[C@@H](C(=O)O)c2cc(O)cc(O)c2-c2cc3ccc2O)O[C@H](CO)[C@@H](O)[C@@H]1O (stereo not given in full) . Reported pEC50?
4.68

Entry under review: CC(=O)N[C@H]1[C@H](O[C@@H]2c3ccc(c(Cl)c3)Oc3cc4cc(c3O)Oc3ccc(cc3Cl)C[C@H]3NC(=O)C(n5cc(COCCOCCOCCOCCN6C(=O)C(SCCOCCOCCOCCO)=C(SCCOCCOCCOCCO)C6=O)nn5)c5ccc(O)c(c5)Oc5cc(O)cc(c5)[C@H](NC3=O)C(=O)N[C@H]4C(O)N[C@H]3C(=O)N[C@H]2C(=O)N[C@@H](C(=O)O)c2cc(O)cc(O)c2-c2cc3ccc2O)O[C@H](CO)[C@@H](O)[C@@H]1O (stereo not given in full) . Reported pEC50?
4.38

Entry under review: CC(=O)N[C@H]1[C@H](O[C@@H]2c3ccc(c(Cl)c3)Oc3cc4cc(c3O)Oc3ccc(cc3Cl)C[C@H]3NC(=O)[C@H](NS(=O)(=O)c5cccc6c(N(C)C)cccc56)c5ccc(O)c(c5)Oc5cc(O)cc(c5)[C@H](NC3=O)C(=O)N[C@H]4C(O)N[C@H]3C(=O)N[C@H]2C(=O)N[C@@H](C(=O)O)c2cc(O)cc(O)c2-c2cc3ccc2O)O[C@H](CO)[C@@H](O)[C@@H]1O (stereo not given in full) . Reported pEC50?
5.28

----------
- System: Influenza B virus
- experimental_details: Antiviral activity against Influenza B virus B/Ned/537/05 infected in MDCK cells after 3 days by MTS assay
- Format: functional, organism-based
- assay_setup: B/Ned/537/05, MDCK, 72 h
property_measured: pEC50
Keep it numeric: pEC50 is minus log10 of the concentration in mol/L.

Requested read-out pEC50, target or system Influenza B virus, entry CCCCCCCCCCCCSC1=C(SCCC)C(=O)N([C@H]2C(=O)N[C@@H]3Cc4ccc(c(Cl)c4)Oc4cc5cc(c4O)Oc4ccc(cc4Cl)[C@@H](O[C@@H]4O[C@H](CO)[C@@H](O)[C@H](O)[C@H]4NC(C)=O)[C@H]4NC(=O)[C@H](NC(O)[C@@H]5NC(=O)[C@@H](NC3=O)c3cc(O)cc(c3)Oc3cc2ccc3O)c2ccc(O)c(c2)-c2c(O)cc(O)cc2[C@H](C(=O)O)NC4=O)C1=O (stereo partly drawn)
5.14

Requested read-out pEC50, target or system Influenza B virus, entry CCCCCCS(=O)(=O)N[C@H]1C(=O)N[C@@H]2Cc3ccc(c(Cl)c3)Oc3cc4cc(c3O)Oc3ccc(cc3Cl)[C@@H](O[C@@H]3O[C@H](CO)[C@@H](O)[C@H](O)[C@H]3NC(C)=O)[C@H]3NC(=O)[C@H](NC(O)[C@@H]4NC(=O)[C@@H](NC2=O)c2cc(O)cc(c2)Oc2cc1ccc2O)c1ccc(O)c(c1)-c1c(O)cc(O)cc1[C@H](C(=O)O)NC3=O (stereo partly drawn)
4.99

----------
What EC50 was measured for each of the following?
- System: H3N2 subtype
- experimental_details: Antiviral activity against Influenza A virus A/HK/7/87(H3N2) infected in MDCK cells assessed as reduction in virus-induced cytopathic effect after 3 days by microscopic method
- Assay type: functional, organism-based
- assay_setup: A/Hong Kong/7/1987(H3N2), 72 h
All answers are understood in nM, so give the number only.

Entry under review: CCCCCCCCCCCCSC1=C(SCCC)C(=O)N([C@H]2C(=O)N[C@@H]3Cc4ccc(c(Cl)c4)Oc4cc5cc(c4O)Oc4ccc(cc4Cl)[C@@H](O[C@@H]4O[C@H](CO)[C@@H](O)[C@H](O)[C@H]4NC(C)=O)[C@H]4NC(=O)[C@H](NC(O)[C@@H]5NC(=O)[C@@H](NC3=O)c3cc(O)cc(c3)Oc3cc2ccc3O)c2ccc(O)c(c2)-c2c(O)cc(O)cc2[C@H](C(=O)O)NC4=O)C1=O (stereo partly drawn) . Reported EC50?
7300

Entry under review: CCCCCCCCOCc1cn([C@H]2C(=O)N[C@@H]3Cc4ccc(c(Cl)c4)Oc4cc5cc(c4O)Oc4ccc(cc4Cl)[C@@H](O[C@@H]4O[C@H](CO)[C@@H](O)[C@H](O)[C@H]4NC(C)=O)[C@H]4NC(=O)[C@H](NC(O)[C@@H]5NC(=O)[C@@H](NC3=O)c3cc(O)cc(c3)Oc3cc2ccc3O)c2ccc(O)c(c2)-c2c(O)cc(O)cc2[C@H](C(=O)O)NC4=O)nn1 (stereo partly drawn) . Reported EC50?
2100

Entry under review: CCCCCCCCCCOCc1cn(CCOCCOCCOCCOCc2cn([C@H]3C(=O)N[C@@H]4Cc5ccc(c(Cl)c5)Oc5cc6cc(c5O)Oc5ccc(cc5Cl)[C@@H](O[C@@H]5O[C@H](CO)[C@@H](O)[C@H](O)[C@H]5NC(C)=O)[C@H]5NC(=O)[C@H](NC(O)[C@@H]6NC(=O)[C@@H](NC4=O)c4cc(O)cc(c4)Oc4cc3ccc4O)c3ccc(O)c(c3)-c3c(O)cc(O)cc3[C@H](C(=O)O)NC5=O)nn2)nn1 (stereo partly drawn) . Reported EC50?
1600
